meta.source: the supplement of paper PMC6555819

Tested on: LXRa:RXRa (NR concentration 270 nM, RXRa partner concentration 90 nM)
test: PBM binding z-score (relative to random genomic background probes); higher = stronger binding; sequences stand for … in GC…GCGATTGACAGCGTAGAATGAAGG
Please note: TRUE applies when PBM binding z-score is 1 or greater, and FALSE applies otherwise.

# count of solved cases: 8
GCATATTGGTAATACAAGGTGAAAGTCCGATTGT : FALSE
GCTGCTAGGTCAACTGCTGGTCAGCTAAAGCTCG : TRUE
AGTCAAAGTTCACTAGGTGACGTAAGATTCAGCT : TRUE
TGTCAAAGTTCAACGGTAACGTAAGTATCCACAC : TRUE
TAACCTAGGTCATGCGGGCCAGTATAGTGTCGGC : TRUE
CGTCCAAGTTCAAGGTCAGTGAAAGAGACTCGAA : TRUE
CCTTACGGGTCGAGGTTATAGCACGGGTGGTACG : TRUE
AGAATGAGGCTATTAAGATCAGGGAATTGCGGTC : FALSE

Prompt: Check the entry CGTCCAAGGTCAATGCTAGGTCAGAGAAAGCATT : does PBM binding z-score equal or exceed 1?
Response: TRUE

###

System: PPARg:RXRa (NR concentration 180 nM, RXRa partner concentration 90 nM)
test: PBM binding z-score (relative to random genomic background probes); higher = stronger binding; sequences stand for … in GC…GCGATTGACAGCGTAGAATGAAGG
Please note: 1 applies when PBM binding z-score is 3 or greater, and -1 applies otherwise.

CAAACTAGCTCACGAAAGGTCAAAGTCGAATGAC : -1
CGAACTAGGTCATCCAGGGCAGTGAATACATTGA : 1
CGTCAAAGTTCAAGGTAACGTAACAGAAAGCAGC : 1
ACGTACGGGTCAACGAGGTTATAGCACGCGTATA : 1
CGAACTAGGTCAGAACAGGACAGTGGAGGATGAT : 1

Prompt: Check the entry GGAGACAGGTGAAACGCAGGTAACTCAGGGTGGC : does PBM binding z-score equal or exceed 3?
Response: -1

Prompt: Check the entry ACAGAGAGGTGATGAAGGTAACTCAGGCTATCAT : does PBM binding z-score equal or exceed 3?
Response: -1

Prompt: Check the entry ATCTAAAGGTCGTGAGGTGAGTATACAGAAAGGC : does PBM binding z-score equal or exceed 3?
Response: 1

Prompt: Check the entry TAGCCTAGGTCATTGGGCCAATATAGTACGCATC : does PBM binding z-score equal or exceed 3?
Response: 1

Prompt: Check the entry CGAACTAGGTCATCCAGGACATTGAATACATTGA : does PBM binding z-score equal or exceed 3?
Response: 1

Prompt: Check the entry TAGCCTAGGTCATGGGCCCGTATACCACGCGAAC : does PBM binding z-score equal or exceed 3?
Response: 1

Prompt: Check the entry TCTATTAGTTGATTAGGGCAACGGAAACAGCGGA : does PBM binding z-score equal or exceed 3?
Response: -1

###

Tested on: VDR homodimer (NR concentration 270 nM)
test: PBM binding z-score (relative to random genomic background probes); higher = stronger binding; sequences stand for … in GC…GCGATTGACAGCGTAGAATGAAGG
Please note: t applies when PBM binding z-score is 2 or greater, and f applies otherwise.

CTTACTGGGCCATTCAGAGGTCATTGATCATATG : t
CGAACTAGGTCAGAACAGGACAATGAAGGATGAT : f
AGTCAAAGTCCATCTAGGTAACGTAAGATATGCT : f
GCACATAGGTAATACAAGGTGAAAGTCCGATTGT : f
TGTCAAAGTTCAAAGGTATCGTAAGTATCCACAC : t
CCGAGTAGGTTATGGGTCATTCAGGCAACGGTGA : f
CCTGCTAGGGCAATGGTCAGCTAAAGCAGCTCGC : f
CGTCCAAGATCAGCAGGTCAGTGAAAGCGACGTG : f
AGTCAAAGTTCAGGACGAGGTAACCTAAAGCACG : t
ATACCAAGGTGATCGTGAGGTCGTAGATACTAAC : f

Let's switch to this sequence now.
Prompt: Check the entry CTACCAAGGTGGACAAGGTCGTTGATTACTATTC : does PBM binding z-score equal or exceed 2?
Response: f

###

Test system: VDR homodimer (NR concentration 270 nM)
test: PBM binding z-score (relative to random genomic background probes); higher = stronger binding; sequences stand for … in GC…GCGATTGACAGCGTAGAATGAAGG
experimental endpoint: PBM binding z-score
Give the value as a plain number.

TCTGTTAGTTGAAGGGCAACCGACGAGTCCGTTT : 1.67
CTACCAAGGTGAACAACGTCGTTGATTACTATTC : -0.472
CCTCGGAGGACAACAGGAGGTCAGAGCAGCCAGA : 1.14
CCTACTGTGCCAAAGGTCATTGATTCCAATGCTC : 3.37
TCTTGTAGCTCAAGCAGGTTAAGAAAGCCTGAGT : -0.763
GCTGCTAGGTCAGGGTGGTCAGCTAACGGGTACG : 0.245
GATACAGGGTCCGCTAGAGGCCAGAGTATGGAAA : -0.148
ACTAGCAGGCCAAGGGCCACTCAAGATTAGTCCG : -0.964

Now consider a different sequence.
Prompt: Record request: PBM binding z-score value, item CCTGCTAGGTCAATGGTCAGATAAAGCAGCTCGC
Response: 0.232

###

Tested on: PPARg:RXRa (NR concentration 180 nM, RXRa partner concentration 90 nM)
test: PBM binding z-score (relative to random genomic background probes); higher = stronger binding; sequences stand for … in GC…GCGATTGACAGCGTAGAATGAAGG
Quick reference: PBM binding z-score of the listed items.
Give the value as a plain number.

CCTATTTGTTGACCATAAGGGCAACCGAAGCTCG : 0.437
AGAATGAGGTGATACGTAGATCAGGGAAGAAAGT : 1.16
CGTCCAAGGGCAAAGGTCAGTGAAGAGATGACGG : 8.11
CAAACTAGGTCAAAGGTCATAGTCGAGCCAACCA : 14
ATCTGTAGGTTAAGGGTCATTCAGGTTGGTTCGC : 9.93

Now consider a different sequence.
Prompt: Record request: PBM binding z-score value, item GCAGACAGGTGAAAGGCAGGTAACTCAGGGTGGC
Response: 0.826

###

System: RARa:RXR (NR concentration 270 nM, RXRa partner concentration 90 nM)
test: PBM binding z-score (relative to random genomic background probes); higher = stronger binding; sequences stand for … in GC…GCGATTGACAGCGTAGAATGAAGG
Please note: MET applies when PBM binding z-score is 1 or greater, and NOT MET applies otherwise.

# count of solved cases: 10
CCTAGGTGGTCAGGAGGTCACACACCGGATATGA : MET
GCTCGGAGGATAAGGTCAGAGCTTTGTCCGTAGA : MET
CAAACTAGGTAAAGAGGTCAAAGTCCGCTTCCCG : MET
CCGACTGGGGAAAAGGTTACCATACTCAGTACGA : MET
ATACCAAGGTGATCGTGTGGTCGTTGATACTAAC : NOT MET
CGTACTGGGCCATTCAGAGGTCATTGATCATATG : MET
CATACTGGGCCAAGGTCATTGATCAGTCAAAGCA : MET
TATTGTAGATCAGCAGGTTAAGAAAGCTGGCCAA : NOT MET
TCATATAGGTAAACAGGTGCAAGTCCGTAAGTTA : MET
TTACCAGGGTGAAGGTCGTTGATCCCTCTGTAGA : MET

Prompt: Check the entry AGAATGAGGTTAATAAGATCAGGGAATTGCGGTC : does PBM binding z-score equal or exceed 1?
Response: MET

###

Quick reference: PBM binding z-score of the listed items.
Tested on: LXRb:RXRa (NR concentration 270 nM, RXRa partner concentration 90 nM)
test: PBM binding z-score (relative to random genomic background probes); higher = stronger binding; sequences stand for … in GC…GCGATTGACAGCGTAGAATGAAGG
Give the value as a plain number.

Prompt: Record request: PBM binding z-score value, item TCTAGTTGGTCAAAGGTCACTCACTCGAAATGCG
Response: 5.13

Prompt: Record request: PBM binding z-score value, item GCGACTGGGGTAAAGCAGGTTACCATAAGGTTGG
Response: 0.852

Prompt: Record request: PBM binding z-score value, item CCGAGTAGGTTATGTGGCATTCAGGCAACGGTGA
Response: 0.0215

Prompt: Record request: PBM binding z-score value, item CAAACTAGGTCACCGGAAGGTGAAAGTCCGCATG
Response: 3.14

Prompt: Record request: PBM binding z-score value, item ATCTCTAGTTAACAAGTTCAGTGAAAGAGAGGAC
Response: 0.883

Prompt: Record request: PBM binding z-score value, item GCTTGTAGATCGAGGTTAAGAAAGACTAAGCTAA
Response: 0.65

Prompt: Record request: PBM binding z-score value, item TGTCAAAGTTCAAAGGTAACGTGAGTATCCACAC
Response: 4.91

Prompt: Record request: PBM binding z-score value, item ATCTCTAGGTAAAGTCCAGTGAAAGATCGATAGA
Response: -0.241

Prompt: Record request: PBM binding z-score value, item GGAAGGAGGGCAAAGTTGATAGCATCTGTCGACG
Response: 1.88

Prompt: Record request: PBM binding z-score value, item CCTAGCACGCCAGGGTCACTCAAGCATTTCGCTT
Response: 1.79

Prompt: Record request: PBM binding z-score value, item ATCGAAAGGACGAAGGTGAGTATACCCACCCGAA
Response: -0.347
